Ref: the supplement of paper PMC11908140

B1: library; numbered along this chain (parent)
chain: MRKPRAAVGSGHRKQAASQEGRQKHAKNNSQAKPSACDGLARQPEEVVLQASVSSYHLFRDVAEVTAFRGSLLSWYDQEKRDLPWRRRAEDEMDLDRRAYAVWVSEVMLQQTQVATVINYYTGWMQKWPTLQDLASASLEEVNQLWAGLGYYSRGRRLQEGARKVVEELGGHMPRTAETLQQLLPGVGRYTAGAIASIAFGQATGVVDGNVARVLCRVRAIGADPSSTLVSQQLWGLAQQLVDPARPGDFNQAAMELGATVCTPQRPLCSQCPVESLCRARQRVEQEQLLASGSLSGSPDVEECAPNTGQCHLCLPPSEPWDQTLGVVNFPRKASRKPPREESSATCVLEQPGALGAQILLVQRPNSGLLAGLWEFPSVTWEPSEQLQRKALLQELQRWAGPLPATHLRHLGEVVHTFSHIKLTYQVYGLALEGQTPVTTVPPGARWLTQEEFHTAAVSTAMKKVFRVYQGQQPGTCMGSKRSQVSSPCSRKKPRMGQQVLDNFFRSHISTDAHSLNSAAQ

Variants of: B1
Protocol description: 8OG:A repair function score (normalized; synonymous = 0, nonsense = -1) (normalized log-likelihood score); higher = more repair activity (WT-like);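 note: cells sorted at 72 h after reporter transfection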
Condition: with 8OG:A DNA repair reporter (GFP) in HEK-293 MUTYH KO cells
Class membership depends on 8OG:A repair function score alone; the intervals are zone 1 = under -0.4, zone 2 = from -0.4 up to 0.0004, zone 3 = 0.0004 and over

q: Quick check: band for C216M
a: zone 1

q: Using the reported 8OG:A repair function score, which band applies to V348M ?
a: zone 1

q: For W235N , which 8OG:A repair function score bin applies?
a: zone 2

q: Into which bin does this variant go? P339A
a: zone 2

q: Given H508Y , name the class its 8OG:A repair function score places it in.
a: zone 3

q: Band assignment needed for A245V please.
a: zone 3

q: Tag the class for L237G
a: zone 1

q: Class label required: C489N
a: zone 3

q: Which 8OG:A repair function score band matches G39F ?
a: zone 3

q: Which class does Q499F fall in?
a: zone 2

q: Band for H312S ?
a: zone 2
